These measurements were taken from PubChem BioAssay (NCI).

- Tested on: OVCAR-5 ovarian
- ASSAY_OVERVIEW: NCI-60 one-dose screen, 48 h (100 = growth as untreated, 0 = no growth, -100 = all killed)
- PARTICULARS: 10 µM
This is part of a sample that, as a whole, favours compounds with a hit. Of some 83,000 tested, about 20% had one in any assay.
Cut-off 50% on growth, inclusive. At or above means rule met; below means rule not met.

# COMPOUND, ASSAY_TARGET, CLASS_ASSIGNMENT
rows = [
    ("COc1ccc(/C=C/C(=O)c2ccc(NC(=O)CN3C(=O)NC(C)(c4ccccc4)C3=O)cc2)cc1 (stereo not drawn)", "OVCAR-5 ovarian", "rule met"),
    ("Nc1nc2c(F)c(F)c(F)c(F)c2s1", "OVCAR-5 ovarian", "rule met"),
    ("CCOC(=O)C1=C(N)N(c2ccccc2)C2=C(C(=O)CC(C)(C)C2)C1c1ccccc1OC (stereo not drawn)", "OVCAR-5 ovarian", "rule met"),
    ("O=c1[nH]c2ccccc2cc1CSc1ccc(Nc2nccc(-c3ccc(Cl)cc3)n2)cc1", "OVCAR-5 ovarian", "rule not met"),
    ("OCCCNc1oc(-c2ccccc2)nc1[P+](c1ccccc1)(c1ccccc1)c1ccccc1", "OVCAR-5 ovarian", "rule not met"),
    ("O=C1Nc2ccc(F)cc2/C1=C/c1cccc(OCc2ccccn2)c1", "OVCAR-5 ovarian", "rule met"),
    ("O=C1Nc2ccc(F)cc2/C1=C/c1cccc(OCc2ccccc2)c1", "OVCAR-5 ovarian", "rule met"),
]

###

- Test system: CCRF-CEM leukemia
- ASSAY_OVERVIEW: NCI-60 one-dose screen, 48 h
- PARTICULARS: 10 µM
Compounds without any hit were thinned out: in the full panel of roughly 83,000, 20% have a hit. Active and inactive are the calls of the source. The calls were made as follows: active = growth percent below 10; inactive = the rest.
Outcomes: active, inactive

# COMPOUND, CLASS_ASSIGNMENT
records = [
    ("CCC(C)S(=O)(=O)c1oc(-c2ccc(C)cc2)nc1S(=O)(=O)c1ccccc1 (stereo not drawn)", "active"),
    ("CN(C)c1ccc(/C=C/C(=O)c2ccc(NC(=O)CN3C(=O)NC(C)(c4ccccc4)C3=O)cc2)cc1 (stereo not drawn)", "inactive"),
    ("CONC[C@]1(C)C=C2C(=O)[C@](C)(O)C3(CC3)C(C)=C2[C@H]1O", "active"),
]

###

Listing of entries alongside the reported growth.
- Test system: PC-3 prostate
- ASSAY_OVERVIEW: NCI-60 one-dose screen, 48 h (100 = growth as untreated, 0 = no growth, -100 = all killed)
- PARTICULARS: 10 µM
The panel holds about 83,000 compounds, 20% with a hit somewhere; the sample as a whole holds those more often. Activity calls are given as the source filed them. The calls were made as follows: active = growth percent below 10; inactive = the rest.

# COMPOUND, ASSAY_TARGET, growth
rows = [
    ("O=C(CSc1nnc(-c2c[nH]c3ccccc23)n1-c1ccccc1)c1ccc(Br)cc1", "PC-3 prostate", "46.2% (inactive)"),
    ("O=C(Nc1cc(Cl)cc(Cl)c1)Nc1cc(Cl)cc(Cl)c1", "PC-3 prostate", "0.387% (active)"),
    ("O=C(NO)c1ccc(Cn2ccc3c(NCc4ccccc4)ncnc32)cc1", "PC-3 prostate", "7.14% (active)"),
    ("Cn1cc(/C=N/Nc2ccnc3cc(Cl)ccc23)c2ccccc21", "PC-3 prostate", "-51.5% (active)"),
    ("CCCCSc1nc(Nc2ccc(/C(C)=N/NC(N)=S)cc2)c(C#N)c(-c2ccc(OC)cc2)n1", "PC-3 prostate", "85.2% (inactive)"),
    ("Cc1cccc2cc(-c3cc(-c4ccccc4)nc(=S)[nH]3)c(Cl)nc12", "PC-3 prostate", "72.5% (inactive)"),
    ("COC[C@@H](CC(C)C)N=C1NC(=O)/C(=C/c2ccc3ncsc3c2)N1", "PC-3 prostate", "30.9% (inactive)"),
    ("COc1ccc(-c2nc(Nc3ccccc3S(N)(=O)=O)c3ccccc3n2)cc1", "PC-3 prostate", "55.6% (inactive)"),
    ("O=C(c1ccc(Cl)cc1)C1[C@H](c2ccc(Br)cc2)[C@@H](c2ccccc2)NC12C(=O)Nc1ccc(Cl)cc12 (some centres not stated)", "PC-3 prostate", "-30.5% (active)"),
    ("Cc1ccc2nc(-c3ccc(-c4nnc(SCC(=O)Nc5ccc(Br)cc5)o4)cc3)[nH]c2c1", "PC-3 prostate", "56.8% (inactive)"),
    ("COc1ccc2[nH]c(=O)c(CSc3ccc(Nc4nccc(-c5ccc(Cl)cc5)n4)cc3)cc2c1", "PC-3 prostate", "83.2% (inactive)"),
    ("Nc1nc(-c2ccccc2)cs1", "PC-3 prostate", "25.1% (inactive)"),
    ("O=C(Nc1cccc([N+](=O)[O-])c1)Nc1cccc([N+](=O)[O-])c1", "PC-3 prostate", "52% (inactive)"),
    ("COc1cc(C2CC(c3ccccc3)=Nc3c(N)nc(N)nc3N2)ccc1Oc1nc(Nc2ccc(F)cc2)nc(N(C)C)n1 (configuration not stated)", "PC-3 prostate", "40.7% (inactive)"),
    ("O=C(CSc1nnc(-c2c[nH]c3ccccc23)n1-c1ccccc1)c1ccccc1", "PC-3 prostate", "65.8% (inactive)"),
    ("CCN(CC)CCOc1ccc(C(=C(C)c2ccccc2)c2ccc(OCCN(CC)CC)cc2)cc1", "PC-3 prostate", "22.7% (inactive)"),
    ("CC(=O)C1=C(C)NC(SCC(=O)Nc2ccc(S(=O)(=O)Nc3cc(C)on3)cc2)=NC1c1ccccc1 (configuration not stated)", "PC-3 prostate", "109% (inactive)"),
    ("CO[C@H]1CSS[C@@H]1Cn1nc(-c2ccc(Oc3ccccc3)cc2)c2c(N)ncnc21", "PC-3 prostate", "41.2% (inactive)"),
    ("Cc1cc2c(c(O)c1Br)-c1ncoc1C(=O)[C@]1(C)CC[C@H](C(C)C)[C@H]21", "PC-3 prostate", "9.6% (active)"),
    ("COC1=C[C@@]23CCC(=O)N2CCc2cc4c(cc2[C@H]3[C@H]1OC(=O)C(C)(C)O)OCO4", "PC-3 prostate", "92.1% (inactive)"),
    ("O=C(CSc1nnc(-c2ccc3nc(-c4ccccc4)[nH]c3c2)o1)Nc1ccc(Br)cc1", "PC-3 prostate", "61.4% (inactive)"),
    ("CN1CCN(c2ccc(Nc3nc(N4CCN(S(=O)(=O)c5ccc(Cl)cc5)CC4)c4sccc4n3)cc2)CC1", "PC-3 prostate", "28.5% (inactive)"),
    ("CN1CCc2c(sc3ncnc(N/N=C/c4cn(-c5ccccc5)nc4-c4ccc(Br)cc4)c23)C1", "PC-3 prostate", "20.8% (inactive)"),
    ("CCOC(=O)c1sc(N/N=C(\\C)c2ccc3c(c2)Nc2ccccc2S3)nc1C", "PC-3 prostate", "21.9% (inactive)"),
    ("Cc1ccc(-c2cc(C(=O)N=Nc3c(O)[nH]c4ccccc34)c3ccccc3n2)cc1", "PC-3 prostate", "48.5% (inactive)"),
    ("COc1cc2c(c(OC)c1OC)C(=O)CC(c1cccc(NC(=O)c3cccc(N)c3)c1)O2 (configuration not stated)", "PC-3 prostate", "70.9% (inactive)"),
    ("N#Cc1ccc(-c2nn(-c3ccc(C(=O)O)cc3)cc2CNc2cc(Cl)cc(Cl)c2)cc1", "PC-3 prostate", "33.6% (inactive)"),
    ("CCOc1ccc2ncc(C#Cc3cncc(C(=O)Nc4ccc(CN5CCN(C)CC5)c(C(F)(F)F)c4)c3)n2n1", "PC-3 prostate", "-34.9% (active)"),
    ("Cc1ccc(-c2nc3ccc(C(=O)N=Nc4c(O)[nH]c5ccc(Br)cc45)cc3[nH]2)cc1", "PC-3 prostate", "62.6% (inactive)"),
    ("COc1cc(/C=C/C(=O)c2ccc(NC(=O)CN3C(=O)NC(C)(c4ccccc4)C3=O)cc2)cc(OC)c1OC (configuration not stated)", "PC-3 prostate", "31.9% (inactive)"),
    ("CC(=O)Nc1ccc(-n2cnc3cc(-c4ccc(NS(C)(=O)=O)cc4)ccc32)cc1", "PC-3 prostate", "62.8% (inactive)"),
    ("COC(=O)C[C@](O)(CCCC(C)(C)O)C(=O)O[C@H]1C(OC)=C[C@@]23CCC(=O)N2CCc2cc4c(cc2[C@@H]13)OCO4", "PC-3 prostate", "89.5% (inactive)"),
]
